The origin of these recorded values is ChEMBL document CHEMBL1862790.

# EXPERIMENT: DNDI: Cytotoxicity against L-6 rat myoblasts from skeletal muscle cells
# CONDITION_SET: L6 rat skeletal muscle myoblast cells, IC50
pIC50: −log10 of the molar value.
QUANTITY_NAME: pIC50

The measured pIC50 associated with CC(C)(C)OC(=O)NC1CCN(C(c2ccc(Cl)cc2)c2cccnc2)CC1 (stereo unspecified) reads 4.27

The measured pIC50 associated with N#Cc1ccc(C(c2cccnc2)N2CCC(NC(=O)c3ccccc3F)CC2)cc1 (stereo unspecified) reads < 4.00

The measured pIC50 associated with Clc1ccc(C(NCCc2c[nH]c3ccccc23)c2cccnc2)cc1 (stereo unspecified) reads 4.31

The measured pIC50 associated with CC(C)(C)NC(=O)N1CCC(NC(c2ccc(C(F)(F)F)cc2)c2cncs2)CC1 (stereo unspecified) reads < 4.00

The measured pIC50 associated with CC(=O)NC(c1ccc(C(F)(F)F)cc1)c1cnccn1 (stereo unspecified) reads < 4.00

The measured pIC50 associated with Cc1cccc(C(O)(c2ccc(Cl)cc2)c2cncnc2)c1 (stereo unspecified) reads 4.17

The measured pIC50 associated with CC(C)C(=O)N1CCC(NC(c2ccc(C(F)(F)F)cc2)c2cnccn2)CC1 (stereo unspecified) reads < 4.00

The measured pIC50 associated with CC(C)(C)OC(=O)N1CCN(C(c2cccnc2)c2ccc(C#N)cc2F)CC1 (stereo unspecified) reads < 4.00

The measured pIC50 associated with Fc1ccc(N2CCC(NC(c3cccnc3)c3ccc(Cl)cc3F)CC2)cc1 (stereo unspecified) reads 4.26

The measured pIC50 associated with N#CC(c1ccc(Cl)cc1)c1ccccn1 (stereo unspecified) reads < 4.00

The measured pIC50 associated with Cc1cc(C(=O)NC2CCN(C(c3ccc(C#N)cc3)c3cccnc3)CC2)on1 (stereo unspecified) reads < 4.00
